The reported measurements were obtained from the Human Domainome abundance scans (Beltran et al. 2025).

In this section we review reported abundance fitness values for a set of variants.
B1: POU domain, class 2, transcription factor 3, residues 186 to 260; numbered along this chain, Q9UKI9 (parent)
chain: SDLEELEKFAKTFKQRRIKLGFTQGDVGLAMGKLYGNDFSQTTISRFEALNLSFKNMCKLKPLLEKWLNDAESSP

Variants of: B1
Experiment: abundance fitness (aPCA) (normalised: wild type 0, dead -1); higher = more abundant; growth selection in yeast, the domain comes from the species named
Conditions: Homo sapiens
Please state the value as a number alone, without comment.

>>> experimental_value("E48G")
-1.04
>>> experimental_value("M57H")
-0.811

Reported abundance fitness for F47V was -0.346

Reported abundance fitness for S53L was -0.768

Reported abundance fitness for L52F was -0.231

Reported abundance fitness for N51L was -0.035

Reported abundance fitness for L52I was -0.183

Reported abundance fitness for K66D was 0.018

Reported abundance fitness for E48L was -0.836

Reported abundance fitness for M57E was -0.814
